Molecular target: Focal adhesion kinase 1 (Homo sapiens)
Experiment: small-molecule microarray binders of FAK, primary screen, biochemical, 635/667 nm fluorescence, BSA, DTT (AID 1130);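 further: composite of spot emission at 667 nm and signal to noise over triplicate slides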
Settings: PTK2 binding, 635 nm fluorescence, higher = more signal
Classes are defined on composite z-score with ranges low value = under -0.04, medium value = from -0.04 up to 0.8, high value = 0.8 and over

Some solved cases for reference:
- CCN(CC)c1ccc(N2CC=CC34O[C@@H]5/C=C\CCCOC(=O)C5[C@H]3C(=O)N(CCO)[C@@H]4C2=O)cc1 (stereo partly drawn): low value
- COC(=O)C(CC#Cc1ccc2c(c1)[C@]1(C(=O)N2)[C@H](C(=O)O)[C@H]2C(=O)O[C@H](c3ccccc3)[C@H](c3ccccc3)N2[C@@H]1c1ccc(O)cc1)C(=O)OC: low value
- COC(=O)C(CC#Cc1ccc2c(c1)[C@]1(C(=O)N2)[C@H](c2ccc(O)cc2)N2[C@H](c3ccccc3)[C@H](c3ccccc3)OC(=O)[C@H]2[C@@H]1C(=O)Nc1nc2ccccc2s1)C(=O)OC: high value

Below: the item to evaluate.
Band of C[C@]1(C(=O)NC2CC2)c2ccccc2C(=O)N(Cc2cc(C(F)(F)F)cc(C(F)(F)F)c2)[C@H]1c1ccc(CO)cc1 ?
medium value

---

Biological target: Neurogenic locus notch homolog protein 3 (Homo sapiens)
Assay: NOTCH3 binders on small-molecule microarray, primary screen, biochemical, 635/667 nm fluorescence (AID 1096)
Settings: NOTCH3 binding, 635 nm fluorescence, higher = more signal
property_label: composite z-score
API note: the answer field is a bare number with no unit suffix.

Give the measured composite z-score for COCCOC(=O)N1C(=O)[C@@]2(c3ccccc31)[C@H](c1ccccc1OCCO)N1[C@H](c3ccccc3)[C@H](c3ccccc3)OC(=O)[C@H]1[C@@H]2C(=O)Nc1nc2ccccc2s1
1.09

Give the measured composite z-score for C[N+](C)(C)CCCCNC(=O)[C@H]1C[C@H]2C(=O)N[C@@H](Cc3ccccc3)C(=O)N2[C@H]1c1ccc(O)cc1
0.471

Give the measured composite z-score for O=C1c2ccccc2[C@@]2(Cc3ccccc3N(CCN3CCOCC3)C2=O)[C@H](c2ccc(CO)cc2)N1Cc1ccccc1
-0.038

Give the measured composite z-score for COC(=O)[C@@]1(Cc2ccc(OC)cc2)[C@H]2c3cc(C(=O)N4CCCC4)n(Cc4ccccc4)c3C[C@H]2CN1C(=O)c1ccccc1
1.05

---

In this section, each of the compounds is paired with its reported composite z-score.
Target: Torsin-1A (Homo sapiens) (UniProt O14656)
Sequence (O14656 whole entry, looked up): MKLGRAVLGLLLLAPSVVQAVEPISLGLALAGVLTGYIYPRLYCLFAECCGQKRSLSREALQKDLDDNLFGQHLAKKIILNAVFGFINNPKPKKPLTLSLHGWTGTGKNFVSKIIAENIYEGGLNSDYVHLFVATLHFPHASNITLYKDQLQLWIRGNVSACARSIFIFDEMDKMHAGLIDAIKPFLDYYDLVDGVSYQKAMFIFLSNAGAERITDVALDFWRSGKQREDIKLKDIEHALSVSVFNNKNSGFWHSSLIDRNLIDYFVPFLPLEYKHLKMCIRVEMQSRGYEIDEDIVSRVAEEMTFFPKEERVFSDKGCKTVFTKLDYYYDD
Assay: torsin A binders from cell lysate, primary screen, small-molecule microarray, wild-type, 635/667 nm (AID 1149)
Details: COS7 hTOR1A-WT lysate, 635 nm fluorescence, higher = more signal

Some compounds with recorded composite z-score:
• CC1CC/C=C\[C@H]2OC34C=CCN(C(C)(C)C)C(=O)[C@H]3N(CCCCCCO)C(=O)[C@@H]4C2C(=O)O1 (stereo partly specified) = -0.67
• CN1C(=O)C2C=CC(C(O)c3ccc(I)cc3)N(N3CCCCC3)C2C1=O (stereo unspecified) = 0.702
• COC(=O)[C@@]1(Cc2ccc(OC)cc2)[C@H]2c3cc(C(=O)N(C)C)n(CCN4CNCC4=O)c3C[C@H]2CN1C(=O)c1ccccc1 = -0.322

Give the measured composite z-score for COc1cc2c(cc1OC)CN(C(=O)[C@H]1[C@@H]3C(=O)O[C@@H](c4ccccc4)[C@@H](c4ccccc4)N3[C@@H](c3ccc(O)cc3)[C@]13C(=O)Nc1ccc(C#CC4=CCCCC4)cc13)CC2
0.302

Give the measured composite z-score for COCCOC(=O)N1C(=O)[C@@]2(c3cc(C#CC4=CCCCC4)ccc31)[C@H](C(=O)Nc1nc3ccccc3s1)[C@H]1C(=O)O[C@H](c3ccccc3)[C@H](c3ccccc3)N1[C@@H]2c1ccccc1OCCO
0.0595

Give the measured composite z-score for O=C1O[C@@H](c2ccccc2)[C@@H](c2ccccc2)N2[C@@H](c3ccc(OCCO)cc3)[C@]3(C(=O)Nc4ccccc43)[C@@H](C(=O)NC[C@H](O)c3ccccc3)[C@H]12
0.437

Recorded values, source PubChem BioAssay.
